- Test system: Fibroblast
- PROCEDURE_SUMMARY: Multiplex assay against human fibroblast
- Assay type: toxicity, cell-based
- TEST_CONDITIONS: 12 h, 10 µM, compound concentration 10 uM, replicate 1
In this section we review reported Population Mitotic Cells (%) values for a set of compounds.
The figure you give is taken to be in %; do not add the unit.

Task: Population Mitotic Cells (%) for CC(C)(O)CNc1ncc(-c2ccnc(Nc3ccnc(Cl)c3)n2)c(CC2CC2)n1 ?
Result: 41

Task: Return reported Population Mitotic Cells (%); argument: Cl.N#Cc1ccc2[nH]cc(CCCCN3CCN(c4ccc5oc(C(N)=O)cc5c4)CC3)c2c1 [VILAZODONE HYDROCHLORIDE]
Result: 30

Task: For the compound Cc1nc(-c2ccc(-c3ccc(C(=O)N4CCc5cc6c(cc54)C4(CCN(C)CC4)CO6)cc3)c(C)c2)no1 , what Population Mitotic Cells (%) is on record?
Result: 28

Task: What does the data say about its Population Mitotic Cells (%)? Entry: C[C@@H](NCCCc1cccc(C(F)(F)F)c1)c1cccc2ccccc12.Cl [CINACALCET HYDROCHLORIDE]
Result: 42

Task: Would you kindly share the measured Population Mitotic Cells (%) for CN1CCN(CCOc2cc(OC3CCOCC3)c3c(Nc4c(Cl)ccc5c4OCO5)ncnc3c2)CC1 ?
Result: 39

Task: Query: Population Mitotic Cells (%); subject: CN1CCN(c2ccc(OC(F)(F)F)c(Nc3ncc4c(n3)-c3c(c(C(N)=O)nn3CCO)CC4)c2)CC1
Result: 32

Task: Tell me the measured Population Mitotic Cells (%) of CC(C)NCC(O)COc1ccc(CCOCC2CC2)cc1.Cl (centres undefined) [BETAXOLOL HYDROCHLORIDE] , please.
Result: 32

Task: Find the recorded Population Mitotic Cells (%) belonging to C=CC(=O)Nc1cc2c(Nc3ccc(F)c(Cl)c3)ncnc2cc1OCCCN1CCOCC1.Cl.Cl [CANERTINIB DIHYDROCHLORIDE] and report it.
Result: 43
